Target: UniProt:P41595
Sequence (P41595 whole entry): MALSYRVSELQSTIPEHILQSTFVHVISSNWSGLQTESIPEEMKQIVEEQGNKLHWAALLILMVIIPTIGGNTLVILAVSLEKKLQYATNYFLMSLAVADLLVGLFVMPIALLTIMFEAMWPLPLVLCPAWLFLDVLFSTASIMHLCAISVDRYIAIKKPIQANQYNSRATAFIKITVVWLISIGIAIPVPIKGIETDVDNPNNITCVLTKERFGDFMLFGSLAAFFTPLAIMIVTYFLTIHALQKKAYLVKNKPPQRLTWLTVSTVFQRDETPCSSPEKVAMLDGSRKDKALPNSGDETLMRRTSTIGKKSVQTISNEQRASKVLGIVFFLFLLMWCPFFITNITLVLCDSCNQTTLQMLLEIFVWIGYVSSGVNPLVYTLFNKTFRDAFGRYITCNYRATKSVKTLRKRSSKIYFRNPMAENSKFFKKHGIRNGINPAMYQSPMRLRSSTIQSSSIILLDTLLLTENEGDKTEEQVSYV
Test: Displacement of [3H]-LSD from human 5-HT2B receptor expressed in HEK cells after 90 mins by microbeta scintillation counting analysis
Format: cell-based
Note to self: use Satisfied only for Ki readings below 0.8 µM; a reading exactly at 0.8 µM still gets Not satisfied.

1) C[C@@H]1SC(c2ccc(-c3ccccc3)cc2)=N[C@H]1Cc1c[nH]cn1 (relative stereo)    Not satisfied
2) Oc1ccccc1C1=NC(Cc2c[nH]cn2)C(c2ccccc2)S1 (racemic)    Satisfied
3) C[C@H]1SC(c2ccccc2O)=N[C@H]1CO    Satisfied
4) C[C@@H]1SC(c2ccccc2)=N[C@H]1Cc1c[nH]cn1 (relative stereo)    Satisfied
5) CCCCCCOc1ccc(C2=N[C@@H](CO)[C@H](C)S2)cc1 (relative stereo)    Not satisfied

Enquiry: Could you please tell me whether Ki recorded for C[C@@H]1SC(c2ccccc2O)=N[C@H]1Cc1c[nH]cn1 (racemic) is less than 0.8 µM?
Return: Satisfied

Enquiry: Lab log: compare recorded Ki with 0.8 µM; is it strictly lower for C[C@@H]1SC(c2cccs2)=N[C@H]1CO (relative stereo) ?
Return: Not satisfied

Enquiry: Check if Ki falls below 0.8 µM for C[C@@H]1SC(c2ccsc2)=N[C@H]1CO (relative stereo) .
Return: Not satisfied
